Origin of the recorded values: PubChem BioAssay (NCI)

- Test system: NCI-H23 lung
- Assay explanation: NCI-60 one-dose screen, 48 h (100 = growth as untreated, 0 = no growth, -100 = all killed)
- Run parameters: 10 µM unless noted
The panel holds about 83,000 compounds, 20% with a hit somewhere; the sample as a whole holds those more often.
Record form. Attribute: growth. Fill in for each entry.
Number in %, nothing else.

Item: `CC(C)[C@]12O[C@H]1[C@@H]1O[C@]13[C@]1(O[C@H]1C[C@H]1C4=C(CC[C@@]13C)C(=O)OC4)[C@@H]2OC(=O)OC(C)(C)C` | System: NCI-H23 lung | growth: -28

Item: `Cc1cc(N(CCCl)CCCl)ccc1C=Nc1ccc2ccccc2c1` | System: NCI-H23 lung | growth: 60.8

Item: Nc1ncnc2c1c(C(=O)NO)cn2C1OC(CO)C(O)C1O (stereo not given) | System: NCI-H23 lung | growth: -4.58

Item: CN1CCN(C(=O)COc2ccc(/C=C3\CC4C5CC=C6CC(Cl)CCC6(C)C5CCC4(C)C3=O)cc2)CC1 (stereo not given) | System: NCI-H23 lung | growth: 71.2

Item: OC1(c2ccc(Cl)cc2Cl)c2ccccc2C2=NCCN21 (stereo not given) | System: NCI-H23 lung | growth: 88.5

---

- Test system: HL-60(TB) leukemia
- Assay explanation: NCI-60 one-dose screen, 48 h
- Run parameters: 10 µM unless noted
About 83,000 compounds went through this panel and 20% of them were active in at least one assay; those are over-represented in the sample as a whole. Activity calls are given as the source filed them. Rule for the calls: active = growth percent below 10; inactive = the rest.
A correct response names exactly one class from active, inactive

Request: State the result this test recorded for `CCCCCn1c(C)cc(/C=C\c2ccc3cc(C)ccc3[n+]2C)c1C` .
Result: active

Request: State the result this test recorded for `O=C1/C(=C/c2ccc([N+](=O)[O-])cc2)CN(C(=O)CCN2CCC(=NO)CC2)C/C1=C\c1ccc([N+](=O)[O-])cc1` .
Result: active

Request: State the result this test recorded for `Cc1sc2nc(NCCN)[nH]c(=O)c2c1C` .
Result: inactive

Request: State the result this test recorded for CCOC(=O)CC1CSC(N/N=C/c2ccc(O)cc2)=N1 (stereo not given) .
Result: inactive

Request: State the result this test recorded for O=C(NC(CSSCC(NC(=O)c1ccccc1)C(=O)O)C(=O)O)c1ccccc1 (stereo not given) .
Result: inactive

Request: State the result this test recorded for Cc1cnc(NC(=O)C(Cc2ccccc2)NC(=O)c2ccccc2)s1 (stereo not given) .
Result: inactive

Request: State the result this test recorded for `Nc1ccc(NC(=O)c2ccccc2)c2c1C(=O)c1ccccc1C2=O` .
Result: inactive

Request: State the result this test recorded for O=CN1N=C(c2ccccc2)CC1c1sc(N(CCCl)CCCl)nc1Cl (stereo not given) .
Result: inactive

Request: State the result this test recorded for `CN(C)c1ccc(C(=S)c2ccc(N(C)C)cc2)cc1` .
Result: inactive

Request: State the result this test recorded for `C=CC(=O)NCc1cccc(Nc2ncc(Br)c(NCCCNC(=O)C3CCC3)n2)c1` .
Result: active

---

- System: HL-60(TB) leukemia
- Assay explanation: NCI-60 one-dose screen, 48 h
- Run parameters: 10 µM unless noted
Compounds without any hit were thinned out: in the full panel of roughly 83,000, 20% have a hit. The source made the active and inactive calls. How the source made its calls: active means growth percent below 10; inactive means the rest.
A correct response names exactly one class from Yes for active, No for inactive

Request: State the result this test recorded for CCC(C)[C@H]1O[C@]2(C=C[C@@H]1C)C[C@@H]1C[C@@H](C/C=C(\C)[C@@H](OC3C[C@H](OC)C(O[C@H]4C[C@H](OC)[C@@H](O)[C@H](C)O4)[C@H](C)O3)[C@@H](C)/C=C/C=C3\CO[C@@H]4[C@H](O)C(C)=C[C@@H](C(=O)O1)[C@]34O)O2 (stereo partly drawn) .
Result: Yes

Request: State the result this test recorded for CNCc1ccccc1CN(CC(=O)Nc1ccc2c(c1)CC1(C2)C(=O)Nc2ncccc21)C(=O)C(C)(C)C (stereo not drawn) .
Result: No

Request: State the result this test recorded for `Oc1ccc2ccccc2c1N=Nc1ccccn1` .
Result: Yes

Request: State the result this test recorded for `CN=C(N)N/N=C(\c1ccccc1)c1ccc(Br)cc1` .
Result: Yes

Request: State the result this test recorded for `CCC(=O)Oc1ccc2ccccc2c1` .
Result: No

Request: State the result this test recorded for `COc1ccc(-c2cc(/C=C3\C(=O)Nc4ccc(Cl)cc43)[nH]n2)cc1OC` .
Result: No

Request: State the result this test recorded for `O=C(O)C[C@H](O)C[C@H](O)/C=C/c1c(C2CC2)nc2ccccc2c1-c1ccc(F)cc1` .
Result: No

Request: State the result this test recorded for CCC(c1ccc(OC)cc1)C(CC)c1ccc(OCC[N+](C)(C)C)cc1 (stereo not drawn) .
Result: Yes
